Target: Serine/threonine-protein phosphatase PP1-alpha catalytic subunit (Homo sapiens) (UniProt P62136)
Sequence (P62136 whole entry, looked up): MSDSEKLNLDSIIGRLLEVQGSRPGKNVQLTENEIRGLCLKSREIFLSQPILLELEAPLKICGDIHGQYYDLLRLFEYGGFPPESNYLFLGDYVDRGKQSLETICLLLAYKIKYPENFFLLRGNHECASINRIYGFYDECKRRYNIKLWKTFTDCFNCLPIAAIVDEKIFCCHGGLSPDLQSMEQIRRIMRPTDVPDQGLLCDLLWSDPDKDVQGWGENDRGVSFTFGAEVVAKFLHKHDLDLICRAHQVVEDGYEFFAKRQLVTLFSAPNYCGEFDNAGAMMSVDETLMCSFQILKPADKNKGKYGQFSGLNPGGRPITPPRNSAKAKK
Assay: PP1alpha phosphatase inhibitors, histone substrate – biochemical, radiolabel, single concentration, powder samples, late-stage follow-up (AID 652228)
Conditions: purified PP1alpha, 33P-phosphohistone dephosphorylation, scintillation; at 50 µM; stronger effect = higher value
Experimental readout: inhibition (%)

compound="CCOC(c1ccccn1)c1cc(Cl)c2cccnc2c1O (centres undefined)" assay_result=15.6
compound=Oc1c(CN2CCN(c3ccccc3)CC2)cc(Cl)c2cccnc12 assay_result=18.5

(a) Oc1c(CN2CCN(c3ccccn3)CC2)cc(Cl)c2cccnc12
(b) CCN1CCN(C(c2ccccn2)c2cc(Cl)c3cccnc3c2O)CC1 (centres undefined)
Just tell me: smaller inhibition value, a or b ? Return value: the label identifying the chosen record. b

(P) CN1CCN(C(c2ccccn2)c2cc(Cl)c3ccccc3c2O)CC1 (centres undefined)
(Q) Oc1c(C(c2ccccn2)N2CCNCC2)cc(Cl)c2cccnc12 (centres undefined)
Just tell me: smaller inhibition value, P or Q ? Return value: the label identifying the chosen record. P
(P: 5.68%, Q: 59%)

(A) CC1CCN(C(c2ccccn2)c2cc(Cl)c3cccnc3c2O)CC1 (centres undefined)
(B) CN1CCN(C(c2ccccc2)c2cc(Cl)c3cccnc3c2O)CC1 (centres undefined)
A or B : whose inhibition is greater? Return value: the label identifying the chosen record. A
(A: 43.2%, B: 4.84%)
